Experiment: small molecules captured by biotinylated probe aFST – biochemical, small-molecule microarray, fluorescence 635/667, stem cell growth factor project, primary screen (AID 1086);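 further: score merges 667 nm fluorescence with signal-to-noise of each printed compound spot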
Conditions: higher = more signal
Classification field: enter 1 for composite z-score values not below 0.4, 0 for values below it.

Use these answered entries as a reference point.
>  <molecule>
O=C(O)[C@H](Cc1ccccc1)n1cc(C2(O)CCCCC2)nn1

>  <classification>
0

$$$$
>  <molecule>
C=C(CCCC)/C(=C/C[C@H](OC(C)=O)c1cccc(OCCO)c1)c1cnc2ccccc2c1

>  <classification>
0

$$$$
>  <molecule>
CC(C)c1nc2cc(Br)ccc2c(=O)o1

>  <classification>
1

$$$$

[in] Tell me whether composite z-score is at least 0.4 here: "COCCn1c(C(=O)N(C)C)cc2c1C[C@H]1CN(C(=O)c3ccccc3)[C@@](Cc3ccc(OC)cc3)(C(=O)OC)[C@@H]21"
[out] 1

[in] Tell me whether composite z-score is at least 0.4 here: "N#Cc1ccc(-c2cccc(=O)o2)cc1"
[out] 1

[in] Tell me whether composite z-score is at least 0.4 here: CCCCC(O)C1C=CC2C(=O)N(c3ccccc3)C(=O)C2N1Nc1ccccc1 (stereo not drawn)
[out] 1

====

Molecular target: Neurogenic locus notch homolog protein 2 (Homo sapiens)
Assay: small molecules binding Notch2 protein – biochemical, small-molecule microarray, 635 nm fluorescence, stem cell growth factors, primary screen (AID 1073)
Conditions: higher = more signal
measure.name: composite z-score

>  <molecule>
COCCn1c(C(=O)N(C)C)cc2c1C[C@H]1CN(C(=O)c3ccccc3)[C@@](Cc3ccc(OC)cc3)(C(=O)OC)[C@@H]21

>  <composite z-score>
1.64

$$$$
>  <molecule>
CCOC(=O)C[C@H]1[C@H](OC(=O)Cc2ccc3c(c2)OCO3)[C@@H](NC(=O)Cc2ccc(OC)cc2)c2cc(OCCCO)ccc2N1C(=O)Cc1ccc(OC)cc1

>  <composite z-score>
0.121

$$$$
>  <molecule>
O=C(N1CCOCC1)[C@@]1(Cc2ccccc2)COC(c2ccc(OCCCO)cc2)=N1

>  <composite z-score>
0.763

$$$$
>  <molecule>
COC(=O)C(CC#Cc1ccc2c(c1)[C@]1(C(=O)N2)[C@H](c2ccccc2OCCO)N2[C@H](c3ccccc3)[C@H](c3ccccc3)OC(=O)[C@H]2[C@@H]1C(=O)N1CCc2cc(OC)c(OC)cc2C1)C(=O)OC

>  <composite z-score>
1.15

$$$$
>  <molecule>
CC(=O)NCCCC[C@@H]1NC(=O)[C@H]2C[C@@H](C(=O)NCCCCCCNC(=O)CS)[C@@H](c3cccc(OCCO)c3)N2C1=O

>  <composite z-score>
-0.681

$$$$
>  <molecule>
Cc1ccc(S[C@]2(C(=O)NC3CC3)CC(=O)N(C(C)C)[C@@H]2c2ccc(CO)cc2I)cc1

>  <composite z-score>
-0.372

$$$$
>  <molecule>
C=CCOC(=O)[C@H]1[C@@H]2C(=O)O[C@@H](c3ccccc3)[C@@H](c3ccccc3)N2[C@@H](c2ccc(OCCOC(=O)[C@H]3C[C@H]4C(=O)N[C@@H](CC(C)C)C(=O)N4[C@H]3c3ccc(O)cc3)cc2)[C@]12C(=O)Nc1ccccc12

>  <composite z-score>
1.46

$$$$
>  <molecule>
COC(=O)[C@@]1(Cc2ccc(OC)cc2)[C@H]2c3cc(C(=O)N4CCCC4)n(Cc4c(CO)[nH]cc(C)c4=O)c3C[C@H]2CN1C(=O)c1ccccc1

>  <composite z-score>
1.57

$$$$

Now let's try a different one.
[in] Param readout = composite z-score; param system = Neurogenic locus notch homolog protein 2 (Homo sapiens); param query = CC1CC/C=C\[C@H]2OC34C=CCN(Cc5ccccc5)C(=O)[C@H]3N(CCCCCCO)C(=O)[C@@H]4C2C(=O)O1 (some centres undefined) ; response: value
[out] -0.763
